All figures here come from ChEMBL document CHEMBL3098038.

Test system: Staphylococcus aureus
Assay: Antibacterial activity against methicillin-resistant Staphylococcus aureus CCARM 3167
Format: functional

# molecule, tested_target, MIC (mg/L)
records = [
    ("COc1cc(O)c2c(=O)oc3c(-c4c(O)c(O)cc5oc(=O)c6c(O)cc(OC)cc6c45)c(O)c(O)cc3c2c1 [VERRULACTONE B]", "Staphylococcus aureus", 8),
    ("COc1cc(O)c2c(c1)[C@@]1(OC2=O)C(C)=CC(=O)[C@]12C(=O)c1c(O)c(O)cc3oc(=O)c4c(O)cc(OC)c2c4c13 (relative stereo)", "Staphylococcus aureus", 32),
    ("COc1cc(O)c2c(=O)oc3cc(O)c(O)c(-c4c(O)c(O)cc5oc(=O)c6c(O)cc(OC)cc6c45)c3c2c1 [VERRULACTONE A]", "Staphylococcus aureus", 8),
    ("COc1cc(O)c2c(=O)oc3cc(O)c(O)cc3c2c1", "Staphylococcus aureus", 8),
    ("Oc1cc(Cl)ccc1Oc1ccc(Cl)cc1Cl [TRICLOSAN]", "Staphylococcus aureus", 0.01),
]
